# Tested on: MS2 coat protein
# ASSAY_PROTOCOL: apparent KD of MS2 coat protein, switch OFF state (with FMN for OFF switches, without FMN for ON switches); designed switch direction (-1 OFF switch, 1 ON switch): 1; higher = weaker reporter binding
# ASSAY_CONTEXT: FMN input: 0 or 200 uM; Eterna round: R93 (includes R88 designs)
EXPERIMENTAL_ENDPOINT: apparent KD of MS2 coat protein (nM)
The response must be a number in nM with no trailing unit.

Noted for AACAAUCUAUCUGAGGAUAUCAAGUCAAAGACAUGAGGAUCACCCAUGUGCAGGAAAACUGCAUUUGAGAAGGCAGAUAGAUUGA [SS2: 1108] : its apparent KD of MS2 coat protein reads 12.1

In plain terms, AAAGAAAAACUAGAGGAUAUUUGAAUGGUAACAUGAGGAUCACCCAUGUGAAGAAAGGAACAUGAGGAGAAGGCUAGAAGAAAAA [JL Nando mod 16] has a documented apparent KD of MS2 coat protein of 74.7

The sequence AAUCCAAAUAGUCAGGAUAUCAAAAAUAAGACAUGAGGAUCACCCAUGUAAUAAGUAAAAGUAAAUGAGAAGGGACAGGGUGAAA [JR_SS002_Sub401] showed apparent KD of MS2 coat protein equal to 92.8

Please fill in: apparent KD of MS2 coat protein reported for AACAAUCUAUCUGAGGAUAUGUGUCGAAAGACAUGAGGAUCACCCAUGUAAAAACAUGGAAAAUCACAGAAGGCAGAUAGAUUGA [SS2: 1145] = 1790

Quick note, apparent KD of MS2 coat protein for AUAAAACAUGAGGAUCACCCAUGUAGACACAUGGGAGGAUAUACUAGAUCGAAAGAUCUAGUAGAAGGCCUUUGUA [Mat - Same State 1 - JL mod - D93] landed at 749

Form field apparent KD of MS2 coat protein, entry CGAAGACAUGAGGAUCACCCAUGUGGGAAUAUGGGAGGAUAUACAAAGACGAGAGUCAGAGUAGAAGGCCUAGGAC [salish99-ss1-108] : 75.5

###

# Test system: MS2 coat protein
# ASSAY_PROTOCOL: apparent KD of MS2 coat protein, switch OFF state (with FMN for OFF switches, without FMN for ON switches); designed switch direction (-1 OFF switch, 1 ON switch): -1; higher = weaker reporter binding
# ASSAY_CONTEXT: FMN input: 0 or 200 uM; Eterna round: R93 (includes R88 designs)
EXPERIMENTAL_ENDPOINT: apparent KD of MS2 coat protein

Noted apparent KD of MS2 coat protein for AACAGUACAGGAUAUACAUGAGGAUCACCCAUGUAAAGGGAAUAAAACAAAAAUAAAUGUAGAAGGGUACUGGA [Moding Maslow revisited (73) 21] , tested on MS2 coat protein: 129 nM

Observed apparent KD of MS2 coat protein, MS2 coat protein, AAACGUAGAGGAUAUACAGGGCUAUUACGAAAGUAAUAGAAACAUGAGGAUCACCCAUGUAGAAGGCUACGAAA [Mod2 of Meechl 64% 1] : 67.9 nM

Reading of apparent KD of MS2 coat protein for AAGAAGGUAGGAUAUACUAACGAAACUAAUGCAUAGAUAAAACAUGAGGAUCACCCAUGUAGAAGGGCCAGAAU [JR_Exc002_Sub015] with MS2 coat protein: 26.6 nM

###

# Tested on: K4 kissing-loop RNA reporter;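 further: bound reporter read as fluorescence of individual clusters on recovered sequencing chips by microscopy, with normalized cluster intensities fitted with a binding model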
# ASSAY_PROTOCOL: apparent KD of K4 kissing-loop reporter; higher = weaker reporter binding
# ASSAY_CONTEXT: Eterna round: R107; input ligand: tryptophan 2.4 mM
EXPERIMENTAL_ENDPOINT: apparent KD of K4 kissing-loop reporter
Reply with the number, then its unit.

Recorded result, CCAAGGUGCUUCUGUUCAGUGAUGUUGGUACGAGGACCGGUACGGCCGCCACUCGCCGUACAAUCGCUAGUUAAUCAUUGGCAAG [theeternabot_exclusion_KL_Trp_A_40] , apparent KD of K4 kissing-loop reporter: 256 nM

Entry under test: GCUAAGGAGUGAUGUUCCAAGUGAUGUUAACGAGGACCGGUACGGCCGCCACUCGAUACGGCCGGAAAGUAAGAUAAACUACAGC [Same State - Tryptophan A (Freestyle 5)] . Its apparent KD of K4 kissing-loop reporter was 82.8 nM

UGACAUUGCUCAGAUACCAGACUUGAGGAACACCCAAGUGCCAAAUAAACGUACAUAAAAGUCCCUUGGCAGCUGAGCAAUGUCU [TheoBX 11] has a reported apparent KD of K4 kissing-loop reporter of 45.3 nM

For record UGAUCACAGUGAUGUUGUGGCAAAAGUGAUACCAGCCGUGUACGAGGCCCUUGGCAGCACCAGGGCUGUACGUCGUUAGAUCCGG [theeternabot_exclusion_KL_Theo_A_33] the listed apparent KD of K4 kissing-loop reporter is 169 nM

Entry AUUCGUCUCUGAGGAUAUCAGAGGAGAGUGAUGUUCUCCCAUAGCCCAGUGAUGUUGGAUGCUAUCUGAGAAGGCAGUGGGCGAA [Same State FMN B GF 14] — recorded apparent KD of K4 kissing-loop reporter = 186 nM

Record UUUAUGAUGUCGGCCGCCACUGGAUUAAUAUGUGUGUAAUCUAGUUCUGAGUGAUGUUUAGAGUCCAGGACCGGGACAUUUGUUA [#11 K4 Tryptophan B Exclusion] , field apparent KD of K4 kissing-loop reporter: 452 nM

Noted for UAUGAAGGUGGAGGAUAUUGAUUGAAUCUUGGUCAGGAGUGAUGUUCCGGGAAGCCUUGGAUUCAUCGAGAAGGCCAAGGAUAGU [Extra 3] : its apparent KD of K4 kissing-loop reporter reads 327 nM

// recorded apparent KD of K4 kissing-loop reporter for UAACUUGCAGUGAUGUUGCAAGAACUGGAUACCAGCAUGGAAACAUGCCCUUGGCAGCCAGAAGCUGGCUGAACAUCACGUCAGU [Design5] : 217 nM

Documented apparent KD of K4 kissing-loop reporter of CGUGGUGCUCGCCAGCUGUGCGAGCGGUGGGAGGAUAUGUCGCGAGACAGAAGGCCCAGUGAUGUUGGGCAGGCUCGUAGAUCAA [Orbemaed] : 116 nM

Memo: UAUGUCAUUCUCGACGGAGUGAUGUUCCGACGAGGACCGGUACGGCCGCCACUCGGCAGAAUUGAGUCUGUGAUCCUAGAUCAAU [theeternabot_exclusion_KL_Trp_A_44] , reported apparent KD of K4 kissing-loop reporter: 200 nM

UGUGGAGAAUAUGAUACCAGCAGUGAGAGAGAGGAAGUAUAGUGAUGUUAUAUGAGAGAAUGCCCUUGGCAGCAUAAGAAGAAGG [SSTheophylB.D] yielded apparent KD of K4 kissing-loop reporter of 186 nM

Data point: AGGUCCGAGCCCGGAAGGGCUCGGACCUGUUAGGAUAUGACGUGAUUCAGAAGGGAUGGGUGGAGUGAUGUUCCACCCGAGAGGG [#2 Same State - FMN A Attempt #20 (HarryS)] ; apparent KD of K4 kissing-loop reporter = 109 nM

Entry CGCAGUGAUGUUGCGAAUAUAAUAACGGAAGGAGCGCGUGAAAACGCAGGUAGGUCGCCGUUUGGUAUGAUGGAAACAUCGUACC [Arginine A K4 11] , apparent KD of K4 kissing-loop reporter reported as 123 nM

Briefly, apparent KD of K4 kissing-loop reporter measured for AAUUACCUAGUGAUGUUGGGAAUAAUAUAACGAGGACCGGUACGGCCGCCACUCGAGGUCCUAAUUAAGAACGCGAAAGCGAAGA [Tryptophan A Exclusion; Euphoria Solution] : 189 nM

Entry under test: AGUACAAUGGCGGCCGCCACUCAACGCAGAUCAAAGAUCUGCAUUCACUCAGUGAUGUUGAGUGAGAGGACCGGGCCUUUGUACA [Omei KL Tryp B SS B v1] . Its apparent KD of K4 kissing-loop reporter was 189 nM

The reported apparent KD of K4 kissing-loop reporter of the sequence AUUAAUUUCAGAGGAUAUGCUUUAUUAUUAUUUUUAAAUAAUAUAAGCAGUGAUGUUGCUUUUUAUGCAGAAGGCUGAUUUAUAA [JR_SSFMNB_Sub016] was 360 nM

The recorded apparent KD of K4 kissing-loop reporter for entry UCUUGCGGCGCAGGAUAUCCGUCUGUCUCCUGCGUCAUUCUGCAGUGAUGUUGCAGGUGACGGAUAGGAGAAGGGCGAACGUACA [Diinonorce] equals 112 nM

Form field apparent KD of K4 kissing-loop reporter, entry CCUCACGUAGGACUAGUGAUGUUAGACUACCGAGGACCGGUACGGCCGCCACUCGUCGUACAAGAUAACCUUCCGCCAGUAUACA : 108 nM

# apparent KD of K4 kissing-loop reporter (sequence: UGUCAUUGGUCUGAUACCAGUUGGGACGAAUACGUCCAACUGGAGUGAUGUUCCUAAAACAACCCUUGGCAGCAGACCGAUGACU [TheoBS 13 #SwitchBubble 13 #StaticStem] ) is 750 nM

Given item GGUAGCAUGGCGGCCGCCACUUCAAGUGGAGUGAUGUUCCACGGCAUCGCGAAAGCGAUGCCUGGAAGGACCGGGCCAUGCUACC , the value recorded as its apparent KD of K4 kissing-loop reporter is 284 nM

Just so you know, measured apparent KD of K4 kissing-loop reporter for GCAGGACGAGGAGGAGGAUGAAUUACUGAAGGAGCGCAUAUUUUUGCAGGUAGGUCGCGGUAAACAAGUAUAGUGAUGUUAUAUC [SSArgA.N] came out at 442 nM

For this sequence ( GGCAGUGAUGUUGCCUAAGCAACGCAUGCGGAGGAUAUUCGUUCGGGAAGAAGGCCGCAGCGUUCUCUCGCGAGUGAUGUUCGCA [Same State FMN A GF 22] ), measured apparent KD of K4 kissing-loop reporter is 147 nM

Input ACCAUCAAAGAUGGCCAGGACUCAACUGAUACCAGAGUGGAAACACUCCCUUGGCAGCAGGUGAGUGAUGUUCACGAGUCCUGGA [Omel KL Theo A SS B v8] . Output apparent KD of K4 kissing-loop reporter: 787 nM

Each recorded value in this set is attributed to the supplement of paper PMC9170038.
